Biological target: UniProt Q99VT5
Sequence (Q99VT5 whole entry): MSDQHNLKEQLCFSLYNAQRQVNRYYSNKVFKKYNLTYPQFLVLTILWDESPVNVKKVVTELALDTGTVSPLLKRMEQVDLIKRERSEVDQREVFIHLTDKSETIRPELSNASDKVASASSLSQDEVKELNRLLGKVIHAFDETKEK
Test: Alkylation of Cys12 in MgrA, DTNB assay for free thiol content
Type: biochemical, S. aureus
Parameters: His6 (N, cleaved yes); made in house; host or cells: E. coli BL21(DE3)
Settings: 8 equivalents alkylator, 0.05 mM MgrA in water, pH 7.4, 1 h, r.t.
observed.property: Alkylation percentage (Cys12 of MgrA)

compound.smiles: O=C1C=CC(=O)N1
Alkylation percentage (Cys12 of MgrA): >95%
--
compound.smiles: CCOC(=O)CI
Alkylation percentage (Cys12 of MgrA): >95%

Now, please, on to the next molecule.
Bench note: what Alkylation percentage (Cys12 of MgrA) did O=C(CI)c1ccccc1 show?
>95%
